- tgt: Glucocorticoid receptor (Homo sapiens)
- Sequence (P04150 whole entry): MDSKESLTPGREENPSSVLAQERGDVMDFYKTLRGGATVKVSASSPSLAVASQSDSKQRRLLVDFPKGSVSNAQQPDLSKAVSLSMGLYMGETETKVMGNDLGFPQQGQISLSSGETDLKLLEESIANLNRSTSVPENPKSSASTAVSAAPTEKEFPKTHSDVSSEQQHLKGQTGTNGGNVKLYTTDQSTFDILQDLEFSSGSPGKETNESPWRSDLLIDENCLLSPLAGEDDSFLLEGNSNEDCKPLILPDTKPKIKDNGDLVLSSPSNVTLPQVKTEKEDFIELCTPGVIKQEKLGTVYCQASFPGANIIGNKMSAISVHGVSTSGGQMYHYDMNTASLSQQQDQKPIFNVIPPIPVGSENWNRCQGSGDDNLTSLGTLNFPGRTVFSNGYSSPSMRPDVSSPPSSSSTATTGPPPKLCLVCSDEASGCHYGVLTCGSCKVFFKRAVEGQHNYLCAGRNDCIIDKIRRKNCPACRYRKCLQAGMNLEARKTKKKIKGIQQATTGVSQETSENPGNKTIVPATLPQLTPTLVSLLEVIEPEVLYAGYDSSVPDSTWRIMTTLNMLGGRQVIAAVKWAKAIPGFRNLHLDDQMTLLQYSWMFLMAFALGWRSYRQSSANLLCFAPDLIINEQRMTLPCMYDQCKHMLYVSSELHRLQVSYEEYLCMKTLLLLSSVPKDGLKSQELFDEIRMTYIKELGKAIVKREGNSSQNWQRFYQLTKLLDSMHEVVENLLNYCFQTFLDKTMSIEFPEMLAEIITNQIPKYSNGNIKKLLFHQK
- experimentSummary: Inhibition of human glucocorticoid receptor
recordedMetric: pIC50
# pIC50 = -log10(concentration in molar units)

// query pIC50 value for entry `Cn1c(SCC(=O)[C@@]2(O)CC[C@@]3(C)[C@@H]4CCC5=CC(=O)CC[C@]5(C)[C@H]4[C@@H](O)C[C@@]32C)nc2ccccc21`
8.05

One more compound: `C[C@]12CCC(=O)C=C1CC[C@@H]1[C@@H]2[C@@H](O)C[C@@]2(C)[C@H]1CC[C@]2(O)C(=O)CSc1ccccn1`
7.83

Now give it for `C[C@]12CCC(=O)C=C1CC[C@@H]1[C@@H]2[C@@H](O)C[C@@]2(C)[C@H]1CC[C@]2(O)C(=O)CSc1nc2ccccc2o1` too.
8.41
